TARGET DESC: T1, rat IL-25 expressed with a C-terminal myc-myc-hexahistidine tag (rat)
T1 construct: also called Rat IL-25-MMH
T1 chain: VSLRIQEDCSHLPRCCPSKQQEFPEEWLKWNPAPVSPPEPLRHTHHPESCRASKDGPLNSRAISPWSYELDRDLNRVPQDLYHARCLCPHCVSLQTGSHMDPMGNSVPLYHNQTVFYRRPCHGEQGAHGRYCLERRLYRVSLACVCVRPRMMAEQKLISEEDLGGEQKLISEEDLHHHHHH
EXPERIMENT SUMMARY: SPR Biacore, antibody captured, 25C;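 note: purified anti-IL-25 antibodies were tested by real-time surface plasmon resonance on a Biacore 4000, with rate constants obtained from sensorgram fits to a 1:1 binding model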
// koff lookup, one value per entry
Dear colleague, please return just the value in s⁻¹, with no unit written.

Please review the entries below; each comes with its answer.
[[record]]
binder = "H4H10897P (antibody, human IgG4, V domains shown, H4H prefix = human IgG4 Fc) VH: QVQLQESGPGLVKPSETLSLTCTVSGGSISDYYWSWIRQPPGKGLEWIGHIYYSGSTNHNPSLKSRVAISVDTSKNQFSLRLYSVTAADTAVYYCARDGYSSSSGFYYFGMDVWGQGTTVTVSS VL: DIQLTQSPSFLSASVGDRVTITCWASQDINSYLAWYQQKPGKAPKLLIFAASTLQGGVPSRFSGSGSGTEFTLTISSLQPEDFATYYCQHLSSFPPTFGQGTRLEIK"
readout_number = 0.000807

[[record]]
binder = "H4H10905P (antibody, human IgG4, V domains shown, H4H prefix = human IgG4 Fc) VH: QVQLVQSGAEVKKPGTSVKVSCKASGYTFTNYGISWVRQAPGQGLEWLGWISAYNDNTDYAQKLQARVTMTTDTFTSTAYMDLRSLRSDDTAVYYCARVPITGTTSSFDFWGQGTLVTVSS VL: DIQMTQSPSSLSASVGDRVTISCRASQTIYSYLNWFQQKPGKAPKLLIYDASSLQSGVPSRFSGSGSGTHFTLTISSLQPEDFATYFCQQTYSTPLTFGGGTKVEIK"
readout_number = 0.000135


Continue with the next binder.
Record request: koff value, item H4H10907P (antibody, human IgG4, V domains shown, H4H prefix = human IgG4 Fc) VH: EVQLVESGGGLVQPGGSLRLSCAASGFTFSNYDIHWVRQVPGKGLEWISTIGSAGDTFYPGSVKGRFTISRENAKNSLYLQMNSLRAGDSAVYYCARGDNWNYVSWFFDLWGRGTLVTVSS VL: DIQLTQSPSFLSTSVGDRVTITCWASQDISSFLAWYQQKPGKAPKLLIYAASVLQSGVPSRFSGSGSGTEFTLTISSLQPEDFATYYCQQVNSYPITFGQGTRLEIK 0.0147
